Please provide measured MIC for the entries that follow.
# System: A. baumannii
# test name: MIC broth microdilution (CLSI)
# Type: cell-based
# test parameters: Acinetobacter baumannii, strain NABA0020, AME negative strain; read-out: Activity (MIC)
# Protocol: Minimum inhibitory concentrations for representative example compounds herein were determined by a broth microdilution method in accordance with the Clinical and Laboratory Standards Institute (CLSI) guidelines. […] Bacteria were suspended in sterile saline and added to each assay plate to obtain a final concentration of 5×10^5 CFU/mL. […] Following incubation, the lowest concentration of the compound that prevented visible growth (OD 600 nm<0.05) is recorded was the MIC. […]

These solved cases illustrate the format of a correct answer.
Request: Please provide the recorded MIC for `C[C@H](N)[C@@H]1CC[C@@H](N)[C@@H](O[C@@H]2[C@@H](N)[C@H](O)[C@@H](NC(=O)[C@@H](O)CCN)[C@H](O)[C@H]2O[C@@H]2O[C@H](CO)[C@@H](O[C@H]3O[C@@H](CN)[C@@H](O)[C@H](O)[C@H]3N)[C@H]2O)O1` , tested on A. baumannii.
Response: < 16 µg/mL

Request: # repeat for `NCC[C@H](O)C(=O)N[C@@H]1[C@@H](O)[C@H](N)[C@@H](O[C@H]2O[C@H](CN)CC[C@H]2N)[C@H](O[C@@H]2O[C@H](CO)[C@@H](O[C@H]3O[C@@H](CN)[C@@H](O)[C@H](O)[C@H]3N)[C@H]2O)[C@H]1O`
Response: < 16 µg/mL

Request: Another molecule to look at: `C[C@H](N)[C@@H]1CC[C@@H](N)[C@@H](O[C@@H]2[C@@H](N)[C@H](O)[C@@H](NC(=O)[C@@H](O)[C@H](F)CN)[C@H](O)[C@H]2O[C@@H]2O[C@H](CO)[C@@H](O[C@H]3O[C@@H](CN)[C@@H](O)[C@H](O)[C@H]3N)[C@H]2O)O1`
Response: < 16 µg/mL

Items follow; give MIC for each.
1. CN[C@@H](C)[C@@H]1CC[C@@H](N)[C@@H](O[C@@H]2[C@@H](N)[C@H](O)[C@@H](NC(=O)[C@@H](O)[C@H](F)CN)[C@H](O)[C@H]2O[C@@H]2O[C@H](CO)[C@@H](O[C@H]3O[C@@H](CN)[C@@H](O)[C@H](O)[C@H]3N)[C@H]2O)O1
2. NC[C@@H]1CC[C@@H](N)[C@@H](O[C@@H]2[C@@H](N)[C@H](O)[C@@H](NC(=O)[C@@H](O)[C@H](F)CN)[C@H](O)[C@H]2O[C@@H]2O[C@H](CO)[C@@H](O[C@H]3O[C@@H](CN)[C@@H](O)[C@H](O)[C@H]3N)[C@H]2O)O1

Response:
1. < 16 µg/mL
2. < 16 µg/mL

# batch size: 3; output MIC per entry
1. C[C@H](N)[C@@H]1CC[C@@H](N)[C@@H](O[C@@H]2[C@@H](N)[C@H](O)[C@@H](N)[C@H](O)[C@H]2O[C@@H]2O[C@H](CO)[C@@H](O[C@H]3O[C@@H](CN)[C@@H](O)[C@H](O)[C@H]3N)[C@H]2O)O1
2. C[C@@H](N)[C@@H]1CC[C@@H](N)[C@@H](O[C@@H]2[C@@H](N)[C@H](O)[C@@H](NC(=O)[C@@H](O)[C@H](F)CN)[C@H](O)[C@H]2O[C@@H]2O[C@H](CO)[C@@H](O[C@H]3O[C@@H](CN)[C@@H](O)[C@H](O)[C@H]3N)[C@H]2O)O1
3. C[C@@H](N)[C@@H]1CC[C@@H](N)[C@@H](O[C@@H]2[C@@H](N)[C@H](O)[C@@H](NC(=O)[C@@H](O)CCN)[C@H](O)[C@H]2O[C@@H]2O[C@H](CO)[C@@H](O[C@H]3O[C@@H](CN)[C@@H](O)[C@H](O)[C@H]3N)[C@H]2O)O1

Response:
["> 16 µg/mL", "< 16 µg/mL", "< 16 µg/mL"]
